Target: Bromodomain-containing protein 4 (Homo sapiens, UniProt O60885, Y390A)
Here, each record is paired with measured IC50 data.
Kindly answer with a numeric value in µM, unit omitted.

The cases that follow already have their IC50 on record.
1. CCC1CN(Cc2ccccc2)c2ccccc2N1C(C)=O (centres undefined); 10
2. CC(=O)N1CCN(Cc2ccccc2)c2ccccc21; 10
3. CCC1CN(Cc2cccc(C)c2)c2ccccc2N1C(C)=O (centres undefined); 12.6

Could you now look at the following compound, please?
Record CCOC(=O)c1ccccc1CN1CC(C2CC2)N(C(C)=O)c2ccccc21 (centres undefined) / Bromodomain-containing protein 4 (Homo sapiens, UniProt O60885, Y390A), IC50 recorded as 12.6

====

Here, each record is paired with measured IC50 data.
Target: Bromodomain-containing protein 4 (Homo sapiens, UniProt O60885, Y97A)
Kindly answer with a numeric value in nM, unit omitted.

Record CC(=O)N1c2ccccc2N(Cc2ccccc2CO)CC1C1CC1 (racemic) / Bromodomain-containing protein 4 (Homo sapiens, UniProt O60885, Y97A), IC50 recorded as 501

Record CC(=O)N1c2ccccc2N(Cc2ccccc2O)CC1C1CC1 (centres undefined) / Bromodomain-containing protein 4 (Homo sapiens, UniProt O60885, Y97A), IC50 recorded as 501

Record CC(=O)N1c2ccccc2N(Cc2ccccc2)CC1C (centres undefined) / Bromodomain-containing protein 4 (Homo sapiens, UniProt O60885, Y97A), IC50 recorded as 501

Record CC(=O)N1c2ccccc2N(Cc2ccccc2C(=O)O)CC1C (centres undefined) / Bromodomain-containing protein 4 (Homo sapiens, UniProt O60885, Y97A), IC50 recorded as 1580

Record CCC1CN(Cc2ccccc2)c2cc(-c3ccc(C(N)=O)nc3)ccc2N1C(C)=O (centres undefined) / Bromodomain-containing protein 4 (Homo sapiens, UniProt O60885, Y97A), IC50 recorded as 63.1

Record CCC1CN(Cc2ccccc2)c2cc(C3=CCOCC3)ccc2N1C(C)=O (centres undefined) / Bromodomain-containing protein 4 (Homo sapiens, UniProt O60885, Y97A), IC50 recorded as 158

Record CCC1CN(Cc2ccccc2)c2cc(-c3cnoc3)ccc2N1C(C)=O (centres undefined) / Bromodomain-containing protein 4 (Homo sapiens, UniProt O60885, Y97A), IC50 recorded as 126

Record CC(=O)N1c2ccc(-c3cnc(C(N)=O)nc3)cc2N(Cc2ccccc2CO)C[C@@H]1C1CC1 / Bromodomain-containing protein 4 (Homo sapiens, UniProt O60885, Y97A), IC50 recorded as 50.1

Record CCC1CN(Cc2ccccc2)c2cc(-c3cn[nH]c3)ccc2N1C(C)=O (centres undefined) / Bromodomain-containing protein 4 (Homo sapiens, UniProt O60885, Y97A), IC50 recorded as 50.1

Record CCC1CN(Cc2ccccc2)c2cc(-c3ccc(C(N)=O)cc3)ccc2N1C(C)=O (centres undefined) / Bromodomain-containing protein 4 (Homo sapiens, UniProt O60885, Y97A), IC50 recorded as 50.1

Record CC(=O)N1c2ccccc2N(Cc2cccc(CO)c2)CC1C1CC1 (centres undefined) / Bromodomain-containing protein 4 (Homo sapiens, UniProt O60885, Y97A), IC50 recorded as 794

Record CCC1CN(Cc2ccccc2)c2cc(-c3cncnc3)ccc2N1C(C)=O (centres undefined) / Bromodomain-containing protein 4 (Homo sapiens, UniProt O60885, Y97A), IC50 recorded as 158

Record CC(=O)N1c2ccccc2N(Cc2cccc(C)c2)CC1C (centres undefined) / Bromodomain-containing protein 4 (Homo sapiens, UniProt O60885, Y97A), IC50 recorded as 1000

Record CC(=O)N1c2ccccc2N(Cc2ccccc2CO)CC1C1CC1 (single isomer, unassigned) / Bromodomain-containing protein 4 (Homo sapiens, UniProt O60885, Y97A), IC50 recorded as 200
